# Test system: U251 CNS
# experimentSummary: NCI tumour cell line growth inhibition, 48 h; in the data active means GI50 below about 0.43 µM; inactive means the rest
Outcomes: 1.0 (active), 0.0 (inactive)

>  <compound>
NC1CCC(Nc2nc(NCc3ccc(-c4cccs4)nc3)c3ncn(C4CCCC4)c3n2)CC1 (centres undefined)

>  <targetDesc>
U251 CNS

>  <assignedClass>
1.0

$$$$
>  <compound>
NC(N)=N/N=C/c1c(-c2cc(Cl)sc2Cl)nc2sccn12

>  <targetDesc>
U251 CNS

>  <assignedClass>
0.0

$$$$
>  <compound>
CC(C)(C)C(=O)OCOP(=O)(OCOC(=O)C(C)(C)C)C1CC(O)N(O)C1=O (centres undefined)

>  <targetDesc>
U251 CNS

>  <assignedClass>
0.0

$$$$
>  <compound>
CN(C)c1ccc(N=C2C=CC(=[N+](C)C)C=C2)cc1

>  <targetDesc>
U251 CNS

>  <assignedClass>
0.0

$$$$
>  <compound>
Nc1nc2c(s1)CCc1c-2c(Br)n(Cc2ccccc2)c1Br

>  <targetDesc>
U251 CNS

>  <assignedClass>
0.0

$$$$
>  <compound>
O=C(c1ccccc1)c1ccc(Oc2ccc([N+](=O)[O-])cc2[N+](=O)[O-])cc1

>  <targetDesc>
U251 CNS

>  <assignedClass>
0.0

$$$$
>  <compound>
CC1(C)CCC2=C(O1)c1ccccc1C(=O)C2=O

>  <targetDesc>
U251 CNS

>  <assignedClass>
0.0

$$$$
>  <compound>
Cc1cc(O)ccc1C1=NN(c2ccc(S(C)(=O)=O)cc2)C(=O)CC1

>  <targetDesc>
U251 CNS

>  <assignedClass>
0.0

$$$$
>  <compound>
O=C1C(=O)c2c(nc3ccc(Br)cn23)-c2ccccc21

>  <targetDesc>
U251 CNS

>  <assignedClass>
0.0

$$$$
>  <compound>
O=C(/C(=C\c1ccc([N+](=O)[O-])cc1)S(=O)Cc1ccc(F)cc1)c1ccc(F)cc1 (centres undefined)

>  <targetDesc>
U251 CNS

>  <assignedClass>
0.0

$$$$
>  <compound>
O=C1NC(=O)C(=C/C=C/c2ccccc2)C(=O)N1

>  <targetDesc>
U251 CNS

>  <assignedClass>
0.0

$$$$
>  <compound>
CCOC(=O)n1cc(C2=C(c3cn(C)c4ccccc34)COC2=O)c2ccccc21

>  <targetDesc>
U251 CNS

>  <assignedClass>
1.0

$$$$
>  <compound>
COc1cc(-c2nc3ccccc3s2)ccc1NC(=O)COc1ccc(Cl)cc1

>  <targetDesc>
U251 CNS

>  <assignedClass>
0.0

$$$$
>  <compound>
Cc1ccc(-c2cc3c(SCC(=O)Nc4cc(C(F)(F)F)ccc4Cl)nccn3n2)cc1

>  <targetDesc>
U251 CNS

>  <assignedClass>
0.0

$$$$

###

# Test system: UACC-62 melanoma
# experimentSummary: NCI tumour cell line growth inhibition, 48 h
Where a SMILES comes first, the peptide text is derived from it. The star is where a group is joined. Cbz = O=C(OCc1ccccc1)*; Boc = CC(C)(C)OC(=O)*; OSu = O=C1CCC(=O)N1O*; Bn = c1ccc(C*)cc1

>  <molecule>
Cc1ccc(Nc2c(C#N)[n+]([O-])c3cc(Cl)ccc3[n+]2[O-])cc1

>  <units>
µM

>  <reportedRelation>
>

>  <TGI>
100

$$$$
>  <molecule>
COc1ccc2cc(-c3cc4c(oc3=O)-c3ccccc3OC4O)c(=O)oc2c1 (centres undefined)

>  <units>
µM

>  <reportedRelation>
=

>  <TGI>
30.4

$$$$
>  <molecule>
CCCCCCCCN(CCCCCCCC)CCCCCCNc1cc(OC)cc2cccnc12

>  <units>
µM

>  <reportedRelation>
=

>  <TGI>
31.4

$$$$
>  <molecule>
CCOC(=O)CSC(=O)NCCCl

>  <units>
µM

>  <reportedRelation>
>

>  <TGI>
100

$$$$
>  <molecule>
COc1cccc(/C=N/[N-]C(N)=O)c1[O-].[Ni+2].[OH3+].c1ccc(-c2ccccn2)nc1

>  <units>
µM

>  <reportedRelation>
>

>  <TGI>
100

$$$$
>  <molecule>
N/N=C(\C(=O)Nc1ccc(Cl)cc1Cl)C(c1cnc2ccccc2n1)[N+](=O)[O-] (centres undefined)

>  <units>
µM

>  <reportedRelation>
>

>  <TGI>
100

$$$$
>  <molecule>
COc1c(C(=O)c2ccc([N+](=O)[O-])cc2)cc(C(C)(C)C)cc1C(C)(C)C

>  <units>
µM

>  <reportedRelation>
=

>  <TGI>
36.2

$$$$
>  <molecule>
CCCC(=O)NC1CCc2cc(OC)c(OC)c(OC)c2-c2ccc(OC)c(=O)cc21 (centres undefined)

>  <units>
µM

>  <reportedRelation>
>

>  <TGI>
100

$$$$
>  <molecule>
CC(=O)O[C@H]1/C(=C/c2ccncc2)C[C@H]2[C@@H]3CC=C4C[C@@H](N5CCCC5)CC[C@]4(C)[C@H]3CC[C@]12C

>  <units>
µM

>  <reportedRelation>
=

>  <TGI>
27.5

$$$$
>  <molecule>
Cn1cc(C2=C(c3cn(C)c4c([N+](=O)[O-])cccc34)C(=O)NC2=O)c2ccccc21

>  <units>
µM

>  <reportedRelation>
>

>  <TGI>
25

$$$$
>  <molecule>
CC(C)NC(=O)OCc1c(COC(=O)NC(C)C)c(-c2cc[n+](COC(=O)C(C)(C)C)cc2)n2c1CCC2

>  <units>
µM

>  <reportedRelation>
>

>  <TGI>
100

$$$$
>  <molecule>
COc1cc2cccc(N)c2cc1OC

>  <units>
µM

>  <reportedRelation>
>

>  <TGI>
100

$$$$
>  <molecule>
c1cc2c(c(NC3=NCCO3)c1)CCC2

>  <units>
µM

>  <reportedRelation>
>

>  <TGI>
100

$$$$
>  <molecule>
CC1CC(=O)Nc2ccccc2N1C(=O)CN1CCC(CCCCN(C)C)CC1 (centres undefined)

>  <units>
µM

>  <reportedRelation>
>

>  <TGI>
100

$$$$
>  <molecule>
CC(C)(C)OC(=O)NC(Cc1ccc(OCc2ccccc2)cc1)C(=O)NC(CCCCNC(=O)OCc1ccccc1)C(=O)ON1C(=O)CCC1=O (centres undefined) (Boc-Tyr(Bn)-Lys(Cbz)-OSu; configuration not given here)

>  <units>
µM

>  <reportedRelation>
=

>  <TGI>
33.2

$$$$
>  <molecule>
CC(=O)Nc1ccc2[nH]c(-c3cccc(Cl)c3)cc(=O)c2c1

>  <units>
µM

>  <reportedRelation>
=

>  <TGI>
84.4

$$$$
>  <molecule>
COc1ccc(C2CC(c3cc(C)ccc3O)=NC(N)=N2)cc1 (centres undefined)

>  <units>
µM

>  <reportedRelation>
>

>  <TGI>
100

$$$$
>  <molecule>
O=C1C(=O)c2c(nc3ccc(Br)cn23)-c2ccccc21

>  <units>
µM

>  <reportedRelation>
=

>  <TGI>
1.27

$$$$
>  <molecule>
O=C(c1ccccc1)c1ccc(-n2c3ccccc3c3ccc4c(c32)C(=O)C=CC4=O)cc1

>  <units>
µM

>  <reportedRelation>
=

>  <TGI>
26.7

$$$$
>  <molecule>
COc1ccc2cc(C(=O)O)ccc2c1OC

>  <units>
µM

>  <reportedRelation>
>

>  <TGI>
100

$$$$
>  <molecule>
O=C(O)CCc1ccc2c(c1)C(=O)CC2

>  <units>
µM

>  <reportedRelation>
>

>  <TGI>
100

$$$$
>  <molecule>
COc1ccc2c(c1)[nH]c(=O)c1c3cc(OC)ccc3cn21

>  <units>
µM

>  <reportedRelation>
=

>  <TGI>
1.4

$$$$
>  <molecule>
CCOC(=O)[C@@]12C3C=CC(CC3)[C@]1(C(=O)c1ccccc1)C(=O)C(=O)N2c1ccccc1 (some centres undefined)

>  <units>
µM

>  <reportedRelation>
>

>  <TGI>
100

$$$$
>  <molecule>
CO[C@@H]1C=C[C@@]23c4cc5c(cc4C(=O)O[C@H]2CN(C)[C@H]3C1)OCO5

>  <units>
µM

>  <reportedRelation>
>

>  <TGI>
100

$$$$
>  <molecule>
COC(=O)C(=O)C(C(=O)C(=O)Nc1nc2ccc(C)cc2s1)c1nc2ccc([N+](=O)[O-])cc2[nH]c1=O (centres undefined)

>  <units>
µM

>  <reportedRelation>
>

>  <TGI>
100

$$$$
>  <molecule>
O=[N+]([O-])c1ccc(Sc2ncnc3nc[nH]c23)c2nonc12

>  <units>
µM

>  <reportedRelation>
=

>  <TGI>
17.3

$$$$
>  <molecule>
COC(=O)C(C(=O)C(=O)Nc1nc(=S)[nH][nH]1)c1csc(-n2nc(-c3ccccc3)cc2-c2ccccc2)n1 (centres undefined)

>  <units>
µM

>  <reportedRelation>
>

>  <TGI>
100

$$$$
>  <molecule>
Clc1ccc2c(c1)N(c1ncnc3ccc(-c4cnc5[nH]ccc5c4)cc13)CC2

>  <units>
µM

>  <reportedRelation>
=

>  <TGI>
21.1

$$$$
>  <molecule>
CC1C[C@H](C)CC(C(O)CC2CC(=O)N(Cc3ccccc3)C(=O)C2)C1O (some centres undefined)

>  <units>
µM

>  <reportedRelation>
>

>  <TGI>
100

$$$$
>  <molecule>
CC1=NOC(=O)/C1=C/c1cccc2ccccc12

>  <units>
µM

>  <reportedRelation>
>

>  <TGI>
100

$$$$
>  <molecule>
Cc1[nH]nc(N)c1C(N)=O

>  <units>
µM

>  <reportedRelation>
>

>  <TGI>
100

$$$$
>  <molecule>
C/C=C/C1=CC(=O)C(O)C1O (centres undefined)

>  <units>
µM

>  <reportedRelation>
=

>  <TGI>
88.6

$$$$
>  <molecule>
COc1ccc2[nH]cc([C@@H]3C4CCC(C4)[C@H]3NCc3cccc(CN[C@H]4C5CCC(C5)[C@@H]4c4c[nH]c5ccc(OC)cc45)c3)c2c1

>  <units>
µM

>  <reportedRelation>
=

>  <TGI>
3.19

$$$$
>  <molecule>
Cc1cc2c(cc1C)[n+](=O)c(C(=O)C/C(=N/OCCCc1ccccc1)C(=O)Nc1cc(Cl)ccc1Cl)c(C)n2[O-]

>  <units>
µM

>  <reportedRelation>
>

>  <TGI>
100

$$$$
>  <molecule>
C=CCSC1=N/C(=C\c2cccs2)C(=O)N1CC=C

>  <units>
µM

>  <reportedRelation>
>

>  <TGI>
100

$$$$
>  <molecule>
Nc1nc2c(s1)CCc1c-2c(Br)n(Cc2ccccc2)c1Br

>  <units>
µM

>  <reportedRelation>
=

>  <TGI>
24.7

$$$$
>  <molecule>
O=C1Nc2c(C(F)(F)F)cccc2[C@@]1(c1ccc(O)cc1)c1ccc(OC(F)(F)F)cc1

>  <units>
µM

>  <reportedRelation>
=

>  <TGI>
0.071

$$$$
>  <molecule>
COC1=CCC=C(C[C@@H]2NCCc3cc(OC)c(OC)cc32)C1

>  <units>
µM

>  <reportedRelation>
>

>  <TGI>
100

$$$$
>  <molecule>
CC1(C)C(O)C[C@@H](O)[C@@]2(C)C1CC[C@]1(C)C2C[C@@H](O)[C@@H]2C([C@@]3(C)CC[C@@H](C(C)(C)O)O3)CCC21C (some centres undefined)

>  <units>
µM

>  <reportedRelation>
=

>  <TGI>
22.6

$$$$
